Target Under Test: MAGE-A11:PCF11 (Homo sapiens (Human), UniProt P43364)
Sequence (P43364 218-429): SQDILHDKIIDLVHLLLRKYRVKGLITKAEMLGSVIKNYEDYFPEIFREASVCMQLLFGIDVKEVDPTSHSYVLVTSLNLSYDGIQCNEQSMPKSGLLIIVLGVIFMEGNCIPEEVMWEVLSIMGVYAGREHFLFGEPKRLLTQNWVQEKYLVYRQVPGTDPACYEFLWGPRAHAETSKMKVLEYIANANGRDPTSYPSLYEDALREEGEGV
Test Protocol: TR-FRET single point screening at 15 μM
Assay type: binding
Set-up: unit not given here
Measurement Context: single point TR-FRET screening at 15 μM against MAGE-A11:PCF11
Output TRUE for records whose TR-FRET signal is lower than 4, FALSE for records at or above 4.

[in] Input COc1ccc2nc3cc(Cl)ccc3c(NCCCNCc3c(F)cccc3C(F)(F)F)c2c1 [SJ000520999] ; condition: TR-FRET signal strictly below 4. Does it hold?
[out] TRUE

[in] Moving on to the next compound: CCN(CCO)CCCC(C)Nc1ccnc2cc(Cl)ccc12 (stereo not drawn) [SJ000286026]
[out] TRUE

[in] Another compound to look at: CCCN(CCCNc1c2ccc(Cl)cc2nc2ccc(OC)cc12)Cc1ccccc1[N+](=O)[O-] [SJ000520947]
[out] TRUE

[in] Another compound to look at: O=[N+]([O-])c1ccc(CN(CCCCNc2ccnc3cc(Cl)ccc23)Cc2ccccc2)cc1 [SJ000361202]
[out] FALSE

[in] And for Cc1ccsc1CN(CCCCNc1ccnc2cc(Cl)ccc12)Cc1ccccc1 [SJ000361191] ?
[out] FALSE

More entries:
[in] Lab note: TR-FRET signal threshold 4. Does this compound come in strictly under it? Fc1ccccc1CN(CCCCNc1ccnc2cc(Cl)ccc12)Cc1ccccc1 [SJ000361198]
[out] FALSE

[in] For C#CCOCC(O)CN1CCN(c2cc(C)nc3ccccc23)CC1 (stereo not drawn) [SJ000227655] then?
[out] FALSE

[in] Note, next up: CCCN(CCCCNc1ccnc2cc(Cl)ccc12)Cc1ccc[nH]1 [SJ000311198]
[out] TRUE

[in] Also Fc1cccc(CN2CCC(Nc3ccnc4cc(Cl)ccc34)CC2)c1 [SJ000523092] , if possible.
[out] FALSE

* * *

Target Under Test: MAGE-A11:PCF11 (Homo sapiens (Human))
Test Protocol: TR-FRET single point screening at 15 μM
Format: binding
Set-up: unit not given here
Measurement Context: single point TR-FRET screening at 15 μM against MAGE-A11:PCF11
TR-FRET signal values for the molecules below.
Output spec: single numeric token, no unit.

[in] GET /values?readout=TR-FRET signal&item= COc1ccc(S(=O)(=O)N2CCN(c3ccnc4cc(Cl)ccc34)CC2)cc1
[out] −32.07

[in] Now consider O=S(=O)(c1ccccc1)c1cnc2ccc(Cl)cc2c1N1CCN(c2ccccc2)CC1 .
[out] −15.7

[in] Next up: CCOc1ccc2ncc(S(=O)(=O)c3ccccc3)c(N3CCN(c4ccccc4)CC3)c2c1
[out] −12.06

[in] // query: COc1ccccc1CN(CCCCNc1ccnc2cc(Cl)ccc12)Cc1ccccc1
[out] 19.4

More entries:
[in] Can you look up the measured TR-FRET signal of Cc1cc(C)c(CN2CCC(Nc3ccnc4cc(Cl)ccc34)CC2)c(C)c1 for me?
[out] 11.75

[in] Next up: CCCN(CCCCNc1ccnc2cc(Cl)ccc12)Cc1cc(F)ccc1OC
[out] 5.396

[in] Then COc1ccc(CN(CCCCNc2ccnc3cc(Cl)ccc23)Cc2ccccc2)cc1 ?
[out] 6.683

[in] Also need CCCN(CCCNc1c2ccc(Cl)cc2nc2ccc(OC)cc12)Cc1ccc(CC)cc1 , thanks.
[out] −105.1

* * *

The following compounds are listed with their measured IC50 values.
Target Under Test: interaction between GST-MAGEA11 MHD and FAM-PCF11_4 peptide (MAGE-A11:PCF11) (Homo sapiens (Human))
Test Protocol: TR-FRET dose response competition assay for disruption of MAGE-A11:PCF11 binding
Measurement Context: Dose response TR-FRET screening of nine scaffold groups against MAGE-A11:PCF11; read-out: consensus IC50
Report only the number, with the unit µM understood.

Use the examples below as a reference point.
[in] // returns reported IC50 for input Fc1cccc(CNCCCNc2ccnc3cc(Cl)ccc23)c1
[out] 69.9

[in] Also need NC1=C(Nc2ccc(Br)cc2)C(=O)c2ccccc2C1=O , thanks.
[out] 69.9

[in] Item: Cc1ccc(S(=O)(=O)N2CCN(C3=C(Cl)C(=O)c4ccccc4C3=O)CC2)cc1
[out] 10.4

***
[in] Record request: IC50 value, item CC(NC=O)c1ccc2c(c1)c1ccccc1n2C (centres unmarked)
[out] 69.9

[in] Next record, please: O=C(NCCO)c1ccc2[nH]c3ccccc3c2c1
[out] 69.9

* * *

Target Under Test: interaction between GST-MAGEA11 MHD and FAM-PCF11_4 peptide (MAGE-A11:PCF11) (Homo sapiens (Human), UniProt P43364)
Test Protocol: TR-FRET dose response competition assay for disruption of MAGE-A11:PCF11 binding
Measurement Context: Dose response TR-FRET screening of nine scaffold groups against MAGE-A11:PCF11; read-out: consensus IC50
Below, each of the compounds is paired with its reported IC50 value.
# output: number + unit

Solved entries:
[in] Look at this compound and give its reported IC50. CCCN1C(=O)c2ccccc2NC1c1ccc2c(c1)OCO2 (stereo not drawn)
[out] 69.9 µM

[in] Same thing, different compound: CCCn1c(-c2cccc(F)c2)nc2c1c(=O)[nH]c(=O)n2Cc1ccccc1
[out] 69.9 µM

[in] What about this compound? COc1ccc(F)cc1CNCCCNc1ccnc2cc(Cc3ccc(F)cc3Cl)ccc12
[out] 17.6 µM

[in] Also check O=C1c2ccccc2NC(c2ccc([N+](=O)[O-])cc2)N1Cc1ccccc1 (stereo not drawn)
[out] 69.9 µM

[in] Field entry: COc1ccc(C(F)(F)F)cc1CNCCCNc1ccnc2cc(C(F)(F)F)ccc12
[out] 69.1 µM

Next:
[in] Consider the compound COc1ccc(F)cc1CNCCCNc1ccnc2cc(Cc3ccccc3)ccc12 and give its measured IC50.
[out] 18.3 µM

[in] Now the same for Fc1ccc(CNCCCNc2ccnc3cc(Cl)ccc23)cc1
[out] 69.9 µM

[in] Proceed to COc1ccc(O)c(C(C)NCCCNc2ccnc3cc(Cl)ccc23)c1 (stereo not drawn)
[out] 69.9 µM

[in] Next compound: COc1cccc(Oc2ccc3c(NCCCNCc4cccc5c4OCO5)ccnc3c2)c1
[out] 36.9 µM

* * *

Target Under Test: UniProtKB P43364
Test Protocol: TR-FRET single point screening at 15 μM
Format: binding
Design: unit not given here
Measurement Context: single point TR-FRET screening at 15 μM against MAGE-A11:PCF11
For each record, check the reported TR-FRET signal: if it is below -0.6 write True, else write False.

[in] In the record for CCCN(CCCNc1c2ccc(Cl)cc2nc2ccc(OC)cc12)Cc1ccccc1 [SJ000520925] , is TR-FRET signal less than -0.6?
[out] True

[in] Repeat for the following molecule: CCOC(=O)c1cnc2c(Cl)c(Cl)ccc2c1NCCN(C)C [SJ000027266]
[out] False

[in] Queued: CCOC(=O)c1cnc2ccc(C)cc2c1NCCN1CCOCC1 [SJ000027268]
[out] False

[in] // same read-out, input: CCCCCN(CCCCC)CC(=O)Nc1c2c(nc3ccccc13)CCC2 [SJ000487033]
[out] True

* * *

Each record here notes measured log10 of IC50.
Target Under Test: interaction between GST-MAGEA11 MHD and FAM-PCF11_4 peptide (MAGE-A11:PCF11) (Homo sapiens (Human))
Test Protocol: TR-FRET dose response competition assay for disruption of MAGE-A11:PCF11 binding
Measurement Context: read-out: IC50 by TR-FRET for disrupting MAGE-A11:PCF11 interaction
Response schema: value (number) is log10 of IC50 in units of nM.

Answered cases to consult:
[in] What log10 of IC50 value was documented for this compound, CC(C)(C)c1ccc(-c2ccc3c(NCCCNCc4ccco4)ccnc3c2)cc1 ?
[out] 3.06

[in] Same question, FC(F)(F)c1ccc2c(NCCCNCc3ccc4[nH]ccc4c3)ccnc2c1 this time
[out] 2.60

[in] Next entry: c1ccc(-c2ccc3c(NCCCNCc4cccc5c4OCO5)ccnc3c2)cc1
[out] 4.31

[in] Request: COc1ccc(F)cc1CNCCCNc1ccnc2cc(-c3ccc(C(F)(F)F)cc3)ccc12
[out] 3.75

[in] Now consider c1ccc2c(NCCCNCc3ccc4[nH]ccc4c3)ccnc2c1 and answer again.
[out] 2.11

For the next question, use this compound.
[in] # lookup: log10 of IC50 of FC(F)(F)c1ccc(-c2ccc3c(NCCCNCc4cccc5c4OCO5)ccnc3c2)cc1
[out] 3.61

* * *

Target Under Test: MAGE-A11:PCF11 (Homo sapiens (Human), UniProt P43364)
Test Protocol: TR-FRET single point screening at 15 μM
Assay type: binding
Design: unit not given here
Measurement Context: single point TR-FRET screening of quinoline compounds against MAGE-A11:PCF11; 15 μM
Attribute: TR-FRET signal
Respond numerically, and do not add a unit to the figure.

[in] Test system MAGE-A11:PCF11 (Homo sapiens (Human), UniProt P43364); read-out TR-FRET signal; what value for O=[N+]([O-])c1ccccc1-c1ccc(CNCCCNc2ccnc3cc(Cl)ccc23)o1 [SJ000523068] ?
[out] 21.65

Others:
[in] Recorded TR-FRET signal for CCCN(CCCNc1ccnc2cc(Cl)ccc12)Cc1cc(OC)ccc1F [SJ000522996] with MAGE-A11:PCF11 (Homo sapiens (Human), UniProt P43364), please?
[out] 26.66

[in] Quick one: Clc1ccc2c(NCCCN(Cc3ccccc3)Cc3ccc[nH]3)ccnc2c1 [SJ000522717]
[out] 20.46
